subject.of.test: human carbonic anhydrase II (hCA II) (Homo sapiens, UniProt P00918)
Construct: from tissue
assay.protocol: CO2 hydratase activity assay (Maren method), hCA II
Assay type: biochemical
test.conditions: hydratase method; enzyme purified from human erythrocytes; read-out: IC50 (hydratase) hCA II
Where a name gives a salt, the structure may show the parent alone.
Just a reminder that ties go to FALSE: only IC50 strictly below 300 µM counts as TRUE.

Worked examples, 5 compounds total:
compound: CCCCc1oc2ccccc2c1C(=O)c1cc(I)c(OCCN(CC)CC)c(I)c1 [Amiodorane hydrochloride]
class.assignment: FALSE

compound: COc1ccc(-n2nc(C(N)=O)c3c2C(=O)N(c2ccc(N4CCCCC4=O)cc2)CC3)cc1
class.assignment: TRUE

compound: CCOc1nc2cccc(C(=O)OC(C)OC(=O)OC3CCCCC3)c2n1Cc1ccc(-c2ccccc2-c2nnn[nH]2)cc1 (stereo not drawn)
class.assignment: TRUE

compound: C[C@H]1O[C@@H](O[C@H]2[C@@H](O)C[C@H](O[C@H]3[C@@H](O)C[C@H](O[C@H]4CC[C@@]5(C)[C@H](CC[C@@H]6[C@@H]5C[C@@H](O)[C@]5(C)[C@@H](C7=CC(=O)OC7)CC[C@]65O)C4)O[C@@H]3C)O[C@@H]2C)C[C@H](O)[C@@H]1O
class.assignment: TRUE

compound: COc1ccc(CN2CCNCC2)c(OC)c1OC [Trimetazidine dihydrochloride]
class.assignment: TRUE

// switching to the query compound
Does the reported IC50 of COc1ccccc1OCC(O)CN1CCN(CC(=O)Nc2c(C)cccc2C)CC1 (stereo not drawn) stay below 300 µM?
FALSE

---

subject.of.test: human carbonic anhydrase I (hCA I) (Homo sapiens, UniProt P00915)
Construct: from tissue
Sequence (P00915 whole entry): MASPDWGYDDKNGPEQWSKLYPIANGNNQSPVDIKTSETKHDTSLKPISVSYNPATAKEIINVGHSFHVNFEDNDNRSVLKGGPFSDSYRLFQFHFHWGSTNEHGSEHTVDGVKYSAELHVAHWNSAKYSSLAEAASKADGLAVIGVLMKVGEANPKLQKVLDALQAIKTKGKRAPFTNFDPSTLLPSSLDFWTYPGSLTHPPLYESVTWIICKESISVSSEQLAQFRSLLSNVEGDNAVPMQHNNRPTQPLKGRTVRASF
assay.protocol: Esterase activity assay (4-nitrophenyl-acetate), hCA I
Format: biochemical
test.conditions: esterase method, 4-nitrophenyl-acetate, 348 nm, 25 °C; read-out: IC50 (esterase) hCA I
Counter-ions that a name gives are not always drawn.
Some compounds, each annotated with its measured IC50.
Give just the number in µM; leave the unit off.

Answered cases to consult:
compound: CCOC(=O)[C@H](CCc1ccccc1)N[C@@H](C)C(=O)N1[C@H](C(=O)O)C[C@@H]2CCC[C@@H]21
quantity: IC50
recorded.value: 32.3
--
compound: CCOc1nc2cccc(C(=O)OC(C)OC(=O)OC3CCCCC3)c2n1Cc1ccc(-c2ccccc2-c2nnn[nH]2)cc1 (stereo not drawn)
quantity: IC50
recorded.value: 342
--
compound: COC(=O)C1=C(C)NC(C)=C(C(=O)OC(C)(C)CN(C)CCC(c2ccccc2)c2ccccc2)C1c1cccc([N+](=O)[O-])c1 (stereo not drawn) [Lercanidipine hydrochloride]
quantity: IC50
recorded.value: 294
--
compound: COc1cc2nc(N3CCN(C(=O)C4COc5ccccc5O4)CC3)nc(N)c2cc1OC (stereo not drawn) [Doxazosin mesylate]
quantity: IC50
recorded.value: 303
--
compound: CCCNCC(O)COc1ccccc1C(=O)CCc1ccccc1 (stereo not drawn)
quantity: IC50
recorded.value: 2.8

Okay, now this compound:
IC50 in this record for `C[C@H]1O[C@@H](O[C@H]2[C@@H](O)C[C@H](O[C@H]3[C@@H](O)C[C@H](O[C@H]4CC[C@@]5(C)[C@H](CC[C@@H]6[C@@H]5C[C@@H](O)[C@]5(C)[C@@H](C7=CC(=O)OC7)CC[C@]65O)C4)O[C@@H]3C)O[C@@H]2C)C[C@H](O)[C@@H]1O` : 23.1
